Reported composite z-score is given for each of the following compounds.
assay explanation: probe aNog binding to arrayed compounds – biochemical, biotinylated probe, 635/667 nm fluorescence, primary screen (AID 1115);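 note: probe is biotinylated aNog protein used at 0.15 µg/mL for 1 h at 4 C; z-score combines 667 nm fluorescence of each spot with its signal to noise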
conditions used: small-molecule microarray, higher = more signal
measurement kind: composite z-score

[[record]]
compound = "Cc1ccc(S[C@]2(C(=O)NCC(F)(F)F)CC(=O)N(Cc3cc(C(F)(F)F)cc(C(F)(F)F)c3)[C@@H]2c2ccc(CO)cc2)cc1"
measurement_kind = "composite z-score"
reported_result = 0.162

[[record]]
compound = "C=C(/C(=C/C[C@H](OC(=O)c1ccncc1)c1ccc(CO)o1)c1cnc2ccccc2c1)C(C)C"
measurement_kind = "composite z-score"
reported_result = 0.181

[[record]]
compound = "C=CCC(OC(C)=O)[C@@H]1[C@@H](N(Cc2ccc(-c3ccccc3)cc2)C(=O)c2ccc(-c3ccccc3)cc2)c2cc(OCCCO)ccc2N1C(=O)c1ccc2ccccc2c1 (stereo partly drawn)"
measurement_kind = "composite z-score"
reported_result = -0.284

[[record]]
compound = "C=CCC(OC(C)=O)[C@@H]1[C@@H](N(Cc2cc3ccccc3o2)C(=O)Cc2ccc(F)cc2)c2cc(OCCCO)ccc2N1C(=O)Cc1ccc2ccccc2c1 (stereo partly drawn)"
measurement_kind = "composite z-score"
reported_result = -0.136

[[record]]
compound = "CCOC(=O)C[C@H]1[C@H](OC(=O)c2ccc(C(=O)c3ccccc3)cc2)[C@@H](NC(=O)C2CCCCC2)c2cc(OCCCO)ccc2N1C(=O)c1ccc2ccccc2n1"
measurement_kind = "composite z-score"
reported_result = -0.244

[[record]]
compound = "O=C1[C@H]2C=C(I)[C@H](C[C@@H]2OCCOCCO)[C@@]12CO2"
measurement_kind = "composite z-score"
reported_result = 0.101

[[record]]
compound = "CCCCCC1=C2CNC(C)(C(=O)OC)C=C2C(C)C1=O (stereo not drawn)"
measurement_kind = "composite z-score"
reported_result = 1.17

[[record]]
compound = "CCCCNC(=O)c1ccc(C#CC(C)(C)C)c(OC(C)=O)c1"
measurement_kind = "composite z-score"
reported_result = -0.256

